Task for the reader: assign each of the following variants its reported FACS-Seq fitted mean (log10).
B1: library; a variant is named by its letters at N, in order (parent)
chain: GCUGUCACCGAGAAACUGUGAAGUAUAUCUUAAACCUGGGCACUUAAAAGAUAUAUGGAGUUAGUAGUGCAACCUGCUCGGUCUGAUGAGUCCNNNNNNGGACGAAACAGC

- Variants of: B1
- protocol: FACS-Seq fitted mean relative fluorescence mCherry/BFP without ligand (log10 relative fluorescence); HEK293T; ligand: cyclic di-GMP (c-di-GMP-II aptamer); higher = higher reporter protein expression
- run_parameters: ligand present: no
Answers are plain numbers.

Previously resolved entries follow.
ACACGA	-0.451
CCGGAC	-0.253
UCAGAU	-0.378

Okay, here is my list. What is FACS-Seq fitted mean (log10) for each of these?
1. AACGAG
2. ACAGCG
3. CCGGAU

1: -0.834; 2: -0.358; 3: -0.339

Okay, here is my list. What is FACS-Seq fitted mean (log10) for each of these?
1. CUGCAA
2. GUCGGA
3. CACUGU
4. GUAAAG
5. UACGUG

1. -0.468
2. -0.0744
3. -0.215
4. -0.104
5. -0.864

// data source = the supplement of paper PMC6757056
